molecular target: human 5-HT4 receptor (Homo sapiens, UniProt Q13639); assay: Binding affinity of compounds for 5-HT4 receptor (radioligand displacement, membrane lysates of COS-7 cells); settings: inhibition of specific binding of 0.595 nM [H3]-AGR113808; COS-7 cell membrane lysates expressing human 5-HT4 receptor
Sequence (Q13639 whole entry): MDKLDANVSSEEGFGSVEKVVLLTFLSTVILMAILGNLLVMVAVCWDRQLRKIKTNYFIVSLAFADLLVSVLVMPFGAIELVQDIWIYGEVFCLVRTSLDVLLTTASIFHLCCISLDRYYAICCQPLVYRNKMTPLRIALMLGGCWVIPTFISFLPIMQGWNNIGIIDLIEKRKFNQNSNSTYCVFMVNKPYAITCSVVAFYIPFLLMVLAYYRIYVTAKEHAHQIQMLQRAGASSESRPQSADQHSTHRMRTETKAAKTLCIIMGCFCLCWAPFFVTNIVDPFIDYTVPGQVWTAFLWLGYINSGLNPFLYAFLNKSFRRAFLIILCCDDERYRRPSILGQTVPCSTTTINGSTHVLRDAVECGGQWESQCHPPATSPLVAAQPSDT
assay-endpoint: IC50

>>> print(df.to_string())
                                   compound  assay_endpoint  measured_value
0  COc1cc(N)c(Cl)cc1C(=O)N[C@H]1CCN(CCC(=O)Nc2cc(C)cc(C)n2)C[C@H]1OC (relative stereo)            IC50          140 nM
1  COc1cc(N)c(Cl)cc1C(=O)N[C@H]1CCN(CCC(=O)Nc2cccc3ncccc23)C[C@H]1OC (relative stereo)            IC50           11 nM
2  COc1cc(N)c(Cl)cc1C(=O)N[C@H]1CCN(CC2CCN(C(=S)C(C)C)CC2)C[C@H]1OC (relative stereo)            IC50          108 nM
